# target desc: μ receptor (Rattus norvegicus, UniProt P33535)
# Construct: the brains (minus the cerebellum) were removed, placed in ice-cold saline solution, and then homogenized; from tissue; host or cells: rat brain (minus cerebellum) membranes
# Sequence (P33535 whole entry): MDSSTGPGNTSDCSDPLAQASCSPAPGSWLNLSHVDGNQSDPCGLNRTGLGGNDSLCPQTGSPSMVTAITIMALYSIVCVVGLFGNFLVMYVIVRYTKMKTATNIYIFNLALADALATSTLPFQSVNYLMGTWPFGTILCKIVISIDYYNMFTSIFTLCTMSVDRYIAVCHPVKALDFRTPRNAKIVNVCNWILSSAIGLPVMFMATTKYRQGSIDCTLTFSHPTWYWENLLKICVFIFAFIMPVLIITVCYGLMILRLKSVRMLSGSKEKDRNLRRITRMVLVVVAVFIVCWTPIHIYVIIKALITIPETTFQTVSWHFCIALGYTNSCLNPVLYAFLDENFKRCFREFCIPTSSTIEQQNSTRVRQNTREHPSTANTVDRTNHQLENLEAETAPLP
# method summary: Radioligand binding assay, μ opioid receptor ((3H)-DAMGO, brain membranes)
# condition info: Table 1; read-out: Ki^μ
Square brackets hold non-standard residues; d marks the D form. Peptide text beside a SMILES is read from it.
measurement name: pKi
Reminder that pKi means the negative base-10 logarithm of the concentration expressed in mol/L.

Provide pKi value for the following molecule: C[C@@H](NC(=O)[C@@H](N)Cc1ccc(O)cc1)C(=O)N[C@@H](Cc1ccccc1)C(=O)N[C@@H](Cc1ccccc1)C(N)=O [BCH1774, H-Tyr-D-Ala-Phe-Phe-NH2] (H-Y[dA]FF-NH2)
8.82

###

# target desc: μ receptors (Cavia porcellus)
# method summary: Guinea Pig Ileum (GPI) assay, longitudinal muscle preparation
# condition info: GPI(IC50), Table 1
Square brackets hold non-standard residues; d marks the D form. Peptide text beside a SMILES is read from it. Phe(4-NO2) = N[C@@H](Cc1ccc([N+](=O)[O-])cc1)C(=O)O; Phe(4-N3) = [N-]=[N+]=Nc1ccc(C[C@H](N)C(=O)O)cc1
Readings of IC50 for the listed compounds
Quick reminder: number only, in nM, skip the unit.

Determine reported IC50 for C[C@@H](NC(=O)[C@@H](N)Cc1ccc(O)cc1)C(=O)N[C@@H](Cc1ccccc1)C(=O)N[C@@H](Cc1ccc(N=[N+]=[N-])cc1)C(N)=O [BCH1778, H-Tyr-D-Ala-Phe-Phe(4-N3)—NH2] (H-Y[dA]F[Phe(4-N3)]-NH2) ; test system: μ receptors (Cavia porcellus).
50

Give IC50 for this entry on μ receptors (Cavia porcellus): C[C@@H](NC(=O)[C@@H](N)Cc1ccc(O)cc1)C(=O)N[C@@H](Cc1ccc([N+](=O)[O-])cc1)C(=O)N[C@@H](Cc1ccc([N+](=O)[O-])cc1)C(N)=O [BCH1777, H-Tyr-D-Ala-Phe(4-NO2)-Phe(4-NO2)—NH2] (H-Y[dA][Phe(4-NO2)][Phe(4-NO2)]-NH2)
6

State IC50 on μ receptors (Cavia porcellus). Entry: C[C@@H](NC(=O)[C@@H](N)Cc1ccc(O)cc1)C(=O)N[C@@H](Cc1ccccc1)C(=O)N[C@@H](Cc1c[nH]c2ccccc12)C(N)=O [BCH1785, H-Tyr-D-Ala-Phe-Trp-NH2] (H-Y[dA]FW-NH2)
16

Report IC50 on μ receptors (Cavia porcellus) for this entry: C[C@@H](NC(=O)[C@@H](N)Cc1ccc(O)cc1)C(=O)N[C@@H](Cc1c[nH]c2ccccc12)C(=O)N[C@@H](Cc1ccccc1)C(N)=O [BCH1784, H-Tyr-D-Ala-Trp-Phe-NH2] (H-Y[dA]WF-NH2)
20

###

# target desc: μ receptors (Cavia porcellus, UniProt P97266)
# Sequence (P97266 whole entry, looked up): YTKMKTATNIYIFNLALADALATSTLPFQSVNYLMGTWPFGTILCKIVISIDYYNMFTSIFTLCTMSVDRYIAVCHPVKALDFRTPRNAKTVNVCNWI
# method summary: Guinea Pig Ileum (GPI) assay, longitudinal muscle preparation
# condition info: GPI(IC50), Table 1
Square brackets hold non-standard residues; d marks the D form. Peptide text beside a SMILES is read from it. * marks the point of attachment. Phe(4-NO2) = N[C@@H](Cc1ccc([N+](=O)[O-])cc1)C(=O)O; 1Nal = N[C@@H](Cc1cccc2ccccc12)C(=O)O; 2Nal = N[C@@H](Cc1ccc2ccccc2c1)C(=O)O; NMeF = CN[C@@H](Cc1ccccc1)C(=O)O; dNle = CCCC[C@@H](N)C(=O)O; Bn = c1ccc(C*)cc1
measurement name: IC50

Known results for compounds:
compound="NC(=O)[C@H](Cc1ccccc1)NC(=O)[C@H](Cc1ccccc1)NC(=O)[C@@H](Cc1ccccc1)NC(=O)[C@@H](N)Cc1ccc(O)cc1 [BCH753, H-Tyr-D-Phe-Phe-Phe-NH2] (H-Y[dF]FF-NH2)" target_desc="μ receptors (Cavia porcellus, UniProt P97266)" measurement_name=IC50 endpoint_result="247 nM"
compound="C[C@@H](NC(=O)[C@@H](N)Cc1ccc(O)cc1)C(=O)N[C@@H](Cc1ccccc1)C(=O)N(C)[C@@H](Cc1ccccc1)C(N)=O [BCH1781, H-Tyr-D-Ala-Phe-Phe(NMe)-NH2] (H-Y[dA]F[NMeF]-NH2)" target_desc="μ receptors (Cavia porcellus, UniProt P97266)" measurement_name=IC50 endpoint_result="241 nM"
compound="N=C(N)NCCC[C@@H](NC(=O)[C@@H](N)Cc1ccc(O)cc1)C(=O)N[C@@H](Cc1ccccc1)C(=O)N[C@@H](CSCc1ccccc1)C(N)=O [BCH3241, H-Tyr-D-Arg-Phe-Cys(Bzl)NH2] (H-Y[dR]FC(Bn)-NH2)" target_desc="μ receptors (Cavia porcellus, UniProt P97266)" measurement_name=IC50 endpoint_result="33 nM"
compound="C[C@@H](NC(=O)[C@@H](N)Cc1ccc(O)cc1)C(=O)N[C@@H](Cc1ccccc1)C(=O)N[C@@H](Cc1ccc([N+](=O)[O-])cc1)C(N)=O [BCH1776, H-Tyr-D-Ala-Phe-Phe(4-NO2)—NH2] (H-Y[dA]F[Phe(4-NO2)]-NH2)" target_desc="μ receptors (Cavia porcellus, UniProt P97266)" measurement_name=IC50 endpoint_result="8 nM"
compound="C[C@@H](NC(=O)[C@@H](N)Cc1ccc(O)cc1)C(=O)N[C@@H](Cc1ccccc1)C(=O)N[C@@H](CSCc1ccccc1)C(N)=O [BCH3240, H-Tyr-D-Ala-Phe-Cys(Bzl)NH2] (H-Y[dA]FC(Bn)-NH2)" target_desc="μ receptors (Cavia porcellus, UniProt P97266)" measurement_name=IC50 endpoint_result="9.16 nM"
compound="C[C@@H](NC(=O)[C@@H](N)Cc1ccc(O)cc1)C(=O)N[C@@H](Cc1ccc([N+](=O)[O-])cc1)C(=O)N[C@@H](Cc1ccccc1)C(N)=O [BCH1779, H-Tyr-D-Ala-Phe(4-NO2)-Phe-NH2] (H-Y[dA][Phe(4-NO2)]F-NH2)" target_desc="μ receptors (Cavia porcellus, UniProt P97266)" measurement_name=IC50 endpoint_result="77 nM"
compound="C[C@@H](NC(=O)[C@@H](N)Cc1ccc(O)cc1)C(=O)N[C@@H](Cc1ccccc1)C(=O)N[C@@H](Cc1cccc2ccccc12)C(N)=O [BCH1782, H-Tyr-D-Ala-Phe-1′-Nal-NH2] (H-Y[dA]F[1Nal]-NH2)" target_desc="μ receptors (Cavia porcellus, UniProt P97266)" measurement_name=IC50 endpoint_result="2 nM"
compound="C[C@@H](NC(=O)[C@@H](N)Cc1ccc(O)cc1)C(=O)N[C@@H](Cc1ccccc1)C(=O)N[C@@H](Cc1ccc2ccccc2c1)C(N)=O [BCH757, H-Tyr-D-Ala-Phe-2′-Nal-NH2] (H-Y[dA]F[2Nal]-NH2)" target_desc="μ receptors (Cavia porcellus, UniProt P97266)" measurement_name=IC50 endpoint_result="2 nM"

Then this compound:
Provide IC50 value for the following compound: CCCC[C@@H](NC(=O)[C@@H](N)Cc1ccc(O)cc1)C(=O)N[C@@H](Cc1ccccc1)C(=O)N[C@@H](Cc1ccccc1)C(N)=O [BCH755, H-Tyr-D-Nle-Phe-Phe-NH2] (H-Y[dNle]FF-NH2)
15 nM
